meta.source: paper PMC9111184

Test system: Caco-2 cell monolayers
Assay type: cell-based, Human
experimental context: relative to cholesterol alone, 24 h
readout: Decrease in cholesterol permeability (%)
Respond numerically; units are % and should not be typed.

Take a look at these entries with their results.
| compound | study system | readout value |
| --- | --- | --- |
| O=C1[C@H](CC[C@H](O)c2ccc(F)cc2)[C@@H](c2ccc(O)cc2)N1c1ccc(F)cc1 [EZ, ezetimibe, reference compound] | Caco-2 cell monolayers | 96.60 |
| O=C(O)/C=C/c1cccc(O)c1 | Caco-2 cell monolayers | 77.70 |
| O=C(/C=C/c1ccc(O)c(O)c1)O[C@H](Cc1ccc(O)c(O)c1)C(=O)O | Caco-2 cell monolayers | 85.65 |

--- query ---
Consider O=C(/C=C/c1ccc(O)c(O)c1)O[C@@H]1C[C@](O)(C(=O)O)C[C@@H](O)[C@H]1O . Its measured Decrease in cholesterol permeability is 80.29
